Cited source for all entries: ChEMBL document CHEMBL4265897

test system: Mycobacterium intracellulare; assay: Antimycobacterial activity against Mycobacterium intracellulare 1956 by CLSI method; type: functional
MIC less than 4 mg/L is TRUE; MIC greater than or equal to 4 mg/L is FALSE.

>  <Compound>
O=C(Nc1nc2ccc(C(F)(F)F)cc2s1)C1CCC2(CC1)CC2

>  <Category Label>
FALSE

$$$$
>  <Compound>
CC12CC3CC(C)(C1)CC(C(=O)Nc1nc4ccc(OC(F)(F)F)cc4s1)(C3)C2

>  <Category Label>
TRUE

$$$$
>  <Compound>
CC1CC(C(=O)Nc2nc3cccc(F)c3s2)CC(C)(C)C1 (stereo unspecified)

>  <Category Label>
FALSE

$$$$
>  <Compound>
CC12CCCC(C(=O)Nc3nc4ccc(OC(F)(F)F)cc4s3)(CCC1)C2

>  <Category Label>
TRUE

$$$$
>  <Compound>
CC1CC(C(=O)Nc2nc3c(Cl)cccc3s2)CC(C)(C)C1 (stereo unspecified)

>  <Category Label>
FALSE

$$$$
>  <Compound>
CC1CC(C)CC(C(=O)Nc2nc3ccc(C(F)(F)F)cc3s2)C1 (stereo unspecified)

>  <Category Label>
FALSE

$$$$
>  <Compound>
CC1CC(C(=O)Nc2nc3cc(C(F)(F)F)ccc3s2)CC(C)(C)C1 (stereo unspecified)

>  <Category Label>
FALSE

$$$$
>  <Compound>
CC12CCCC(C(=O)Nc3nc4cc(Cl)cc(Cl)c4s3)(CCC1)C2

>  <Category Label>
TRUE

$$$$
>  <Compound>
CC1CC(C(=O)Nc2nc3c(F)cccc3s2)CC(C)(C)C1 (stereo unspecified)

>  <Category Label>
FALSE

$$$$
>  <Compound>
CC1CC(C(=O)Nc2nc3cc(Cl)cc(Cl)c3s2)CC(C)(C)C1 (stereo unspecified)

>  <Category Label>
FALSE

$$$$
>  <Compound>
Cc1cc(C)c2sc(NC(=O)C34CCCC(C)(CCC3)C4)nc2c1

>  <Category Label>
FALSE

$$$$

====

test system: Mycobacterium intracellulare; assay: Antimycobacterial activity against Mycobacterium intracellulare 1956 by CLSI method; assay type: functional

>  <Molecule>
CC1CC(C(=O)Nc2nc3ccc(N(C)C)cc3s2)CC(C)(C)C1 (stereo unspecified)

>  <Tested System>
Mycobacterium intracellulare

>  <Comparative Sign>
>

>  <MIC / µg/mL>
64

$$$$
>  <Molecule>
CC1CC(C(=O)Nc2nc3ccc(C(F)(F)F)cc3s2)CC(C)(C)C1 (stereo unspecified)

>  <Tested System>
Mycobacterium intracellulare

>  <Comparative Sign>
>

>  <MIC / µg/mL>
64

$$$$
>  <Molecule>
Cc1cc(C)c2sc(NC(=O)C3CC(C)CC(C)(C)C3)nc2c1 (stereo unspecified)

>  <Tested System>
Mycobacterium intracellulare

>  <Comparative Sign>
>

>  <MIC / µg/mL>
64

$$$$
>  <Molecule>
CC1CC(C(=O)Nc2nc3ccc(OC(F)(F)F)cc3s2)CC(C)(C)C1 (stereo unspecified)

>  <Tested System>
Mycobacterium intracellulare

>  <Comparative Sign>
>

>  <MIC / µg/mL>
64

$$$$
>  <Molecule>
CC1CCCC(C(=O)Nc2nc3ccc(C(F)(F)F)cc3s2)C1 (stereo unspecified)

>  <Tested System>
Mycobacterium intracellulare

>  <Comparative Sign>
=

>  <MIC / µg/mL>
16

$$$$
>  <Molecule>
CC1CC(C(=O)Nc2nc3c(F)cc(Br)cc3s2)CC(C)(C)C1 (stereo unspecified)

>  <Tested System>
Mycobacterium intracellulare

>  <Comparative Sign>
=

>  <MIC / µg/mL>
16

$$$$
>  <Molecule>
O=C(Nc1nc2ccc(C(F)(F)F)cc2s1)C1CCCC(C(F)(F)F)C1 (stereo unspecified)

>  <Tested System>
Mycobacterium intracellulare

>  <Comparative Sign>
=

>  <MIC / µg/mL>
16

$$$$
>  <Molecule>
O=C(Nc1nc2ccc(C(F)(F)F)cc2s1)C1CC2CCC1C2 (stereo unspecified)

>  <Tested System>
Mycobacterium intracellulare

>  <Comparative Sign>
=

>  <MIC / µg/mL>
32

$$$$
>  <Molecule>
CC1CC(C(=O)Nc2nc3cc(F)ccc3s2)CC(C)(C)C1 (stereo unspecified)

>  <Tested System>
Mycobacterium intracellulare

>  <Comparative Sign>
=

>  <MIC / µg/mL>
16

$$$$
>  <Molecule>
CC12CCCC(C(=O)Nc3nc4c(F)cc(F)cc4s3)(CCC1)C2

>  <Tested System>
Mycobacterium intracellulare

>  <Comparative Sign>
=

>  <MIC / µg/mL>
4

$$$$
>  <Molecule>
CC1CC(C(=O)Nc2nc3cc(Br)ccc3s2)CC(C)(C)C1 (stereo unspecified)

>  <Tested System>
Mycobacterium intracellulare

>  <Comparative Sign>
>

>  <MIC / µg/mL>
64

$$$$
